Collected IC50 for Tyrosine-protein kinase JAK1 (Homo sapiens, UniProt P23458) across several studies; compounds listed below.

# compound, IC50
records = [
    ("COCCOC(=O)c1cnc2[nH]ccc2c1N[C@H]1CCC[C@@H](CCC#N)C1 (single isomer, unassigned; enantiomer 1)", "100 to 1000 nM"),
    ("CC(=O)N1CC(CC#N)(n2cc(-c3nc(-c4cnn(C)c4)cc4nccn34)cn2)C1", "> 1000 nM"),
    ("Cc1cc(Nc2ncc(C)c(N3CC(C)(CNC(=O)C4CCN(C(=O)OC(C)(C)C)CC4(F)F)C3)n2)sn1 (stereo not drawn)", "< 100 nM"),
]

Give IC50 for each listed item.
1. Cc1ccc(NC(=O)c2cccc(Cl)c2)cc1-c1ccc2c(c1)[nH]c1ncncc12
2. CC(C)=C(C#N)C(=O)Nc1cccc2c(-c3cc(NC(=O)C4CC4)ncc3C)c[nH]c12

1: ≤ 500 nM; 2: > 1000 nM

Give IC50 for each listed item.
1. N#CCC1(n2cc(-c3ccnc4[nH]ccc34)cn2)CN(C2CCN(C(=O)C3CCC(F)(F)CC3)CC2)C1
2. CN(c1ncnc2[nH]ccc12)C1CC2(C1)CN(C(=O)c1ccc(C#N)c(F)c1)C2

["20 to 30 nM", "10 to 100 nM"]

Give IC50 for each listed item.
1. Cc1cc(Nc2nc(N[C@@H]3C[C@H]4CC[C@@H](C3)N4CCC#N)nc3cc(-c4cnn(C5CC5)c4)ccc23)n[nH]1
2. Cc1cc(Nc2ncc(C)c(N3CC(CC#N)(NC(=O)[C@@H]4CC4(F)F)C3)n2)sn1
3. Cc1ccc(NC(=O)c2cc(N3CCNCC3)cc(C(F)(F)F)c2)cc1-c1ccc2c(c1)[nH]c1ncncc12
4. C[C@H](NC(=O)c1cc(F)c(N2CC(CC#N)(n3cc(-c4ncnc5[nH]ccc45)cn3)C2)cc1F)C(F)(F)F

0.29 nM
< 10 nM
≤ 500 nM
< 10 nM

Give IC50 for each listed item.
1. CN(c1ncnc2[nH]ccc12)N1CCCC(CNC(=O)CC#N)C1 (stereo not drawn)
2. CNC(=O)c1n[nH]c2nc(-c3cc(F)c(O)cc3CC(F)(F)F)nc(NCc3cc(F)ccc3N(C)S(C)(=O)=O)c12
3. Cn1ccc2c(Nc3nc(Nc4ccc5c(c4)NCC(O)CO5)ncc3C(N)=O)cccc21 (stereo not drawn)
4. N#CCC1(n2cc(-c3ncnc4[nH]ccc34)cn2)CN(C2CCN(C(=O)Nc3ccc(C(F)(F)F)cc3)CC2)C1

1: 10 to 100 nM; 2: 10.4 nM; 3: 10 to 100 nM; 4: ≤ 5 nM

---

Collected IC50 for Tyrosine-protein kinase JAK1 (Homo sapiens, UniProt P23458) across several studies; compounds listed below.

Check out these entries, answers already filled in.
# compound, assay_value
data = [
    ("Cn1cc(-c2cc3nccn3c(-c3cnn(C4(CC#N)CCCCC4)c3)n2)cn1", "100 to 1000 nM"),
    ("N#CCC1(n2cc(-c3ncnc4[nH]ccc34)cn2)CN(C2CCN(C(=O)c3cc4ccc(C(F)(F)F)cc4s3)CC2)C1", "5 to 20 nM"),
    ("N#C[C@@H]1CCOC[C@H]1n1cc(C(N)=O)c(Nc2cc(F)c3c(c2)B(O)OC3)n1 (relative stereo)", "10 to 50 nM"),
    ("CC(C)(O)Cn1cc(-c2nc(NC3CCN(S(=O)(=O)C4CC4)CC3)ncc2C#N)cn1", "≥ 10000 nM"),
]

Give IC50 for each listed item.
1. CC(C)=C(C#N)C(=O)Nc1cccc2c1ccn2-c1ccnc(NC(=O)C2CC2)c1
2. Cc1cc(Nc2ncc(C)c(N3CC(CC#N)(NCc4ccc(F)cc4F)C3)n2)sn1
3. NC(=O)c1cnc(Nc2ccc3c(c2)OC[C@H]2CN(C(=O)C(F)(F)F)CCN32)nc1NC1CC1
4. CCCCNc1nc(Nc2ccc3c(c2)NC[C@H](O)CO3)ncc1C(N)=O
5. COc1cc(C(=O)N2CCC(N3CC(CC#N)(n4cc(-c5ncnc6[nH]ccc56)cn4)C3)CC2)ccc1F
6. CN(c1ncnc2[nH]ccc12)C1CC2(C1)CN(C(=O)c1cccc(F)c1F)C2
7. Cc1ncc(C(=O)Nc2cccc3c2ccn3-c2ccnc(NC(=O)C3CC3)c2)s1
8. N#CCC(C1CC1)n1cc(-c2nc(-c3ccc(N4CCOCC4)cc3)cc3nccn23)cn1 (stereo not shown)

1: 100 to 1000 nM; 2: < 20 nM; 3: < 500 nM; 4: < 10 nM; 5: ≤ 5 nM; 6: 10 to 100 nM; 7: > 1000 nM; 8: 10 to 100 nM

Give IC50 for each listed item.
1. N#CCC1(n2cc(-c3ccnc4[nH]ccc34)cn2)CN(C2CCN(C(=O)Nc3cnccc3C(F)(F)F)CC2)C1
2. N#CCC1(n2cc(-c3ncnc4[nH]ccc34)cn2)CN(C2CCN(Cc3cc4ccccc4o3)CC2)C1
3. Cc1cnc(Nc2ccc(N3CCOCC3)cc2)nc1Sc1ccc(N)c(C)c1Cl
4. N#CCC1(n2cc(-c3ncnc4[nH]ccc34)cn2)CN(C2CCN(C(=O)c3ccc(C(F)(F)F)cc3F)CC2)C1

≤ 5 nM
5 to 20 nM
> 1000 nM
≤ 5 nM
